EXPERIMENTAL_TARGET: T1, PACE4, P29122
T1 chain: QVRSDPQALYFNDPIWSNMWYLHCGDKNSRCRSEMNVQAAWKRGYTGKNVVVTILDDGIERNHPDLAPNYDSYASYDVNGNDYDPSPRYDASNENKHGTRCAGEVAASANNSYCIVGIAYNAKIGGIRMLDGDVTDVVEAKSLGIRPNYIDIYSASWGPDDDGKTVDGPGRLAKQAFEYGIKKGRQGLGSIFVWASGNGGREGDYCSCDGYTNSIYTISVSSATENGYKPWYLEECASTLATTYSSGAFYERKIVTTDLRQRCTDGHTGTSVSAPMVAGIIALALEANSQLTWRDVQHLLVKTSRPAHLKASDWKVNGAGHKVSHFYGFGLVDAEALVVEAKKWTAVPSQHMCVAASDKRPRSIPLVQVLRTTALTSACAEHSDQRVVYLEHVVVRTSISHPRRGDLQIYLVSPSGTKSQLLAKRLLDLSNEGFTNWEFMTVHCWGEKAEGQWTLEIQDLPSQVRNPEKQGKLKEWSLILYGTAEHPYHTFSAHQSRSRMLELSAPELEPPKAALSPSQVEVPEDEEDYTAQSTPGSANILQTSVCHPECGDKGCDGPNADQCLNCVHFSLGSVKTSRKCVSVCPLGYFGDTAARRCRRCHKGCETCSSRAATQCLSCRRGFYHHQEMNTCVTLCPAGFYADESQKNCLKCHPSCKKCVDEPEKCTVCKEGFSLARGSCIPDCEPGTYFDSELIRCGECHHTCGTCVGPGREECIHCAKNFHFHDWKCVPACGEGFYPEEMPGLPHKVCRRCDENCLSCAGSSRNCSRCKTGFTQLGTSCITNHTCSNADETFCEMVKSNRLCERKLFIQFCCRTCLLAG
CONDITION_LABEL: modification not given
PROPERTY_LABEL: Ki (nM)
Reply with just the number (in nM).

Item RRRRRRRRR [Nona-L-arginine] has what recorded Ki?
110
